# IC50 per record follows
Molecular target: Thymidine phosphorylase (Escherichia coli K-12, UniProt P07650)
Sequence (P07650 whole entry): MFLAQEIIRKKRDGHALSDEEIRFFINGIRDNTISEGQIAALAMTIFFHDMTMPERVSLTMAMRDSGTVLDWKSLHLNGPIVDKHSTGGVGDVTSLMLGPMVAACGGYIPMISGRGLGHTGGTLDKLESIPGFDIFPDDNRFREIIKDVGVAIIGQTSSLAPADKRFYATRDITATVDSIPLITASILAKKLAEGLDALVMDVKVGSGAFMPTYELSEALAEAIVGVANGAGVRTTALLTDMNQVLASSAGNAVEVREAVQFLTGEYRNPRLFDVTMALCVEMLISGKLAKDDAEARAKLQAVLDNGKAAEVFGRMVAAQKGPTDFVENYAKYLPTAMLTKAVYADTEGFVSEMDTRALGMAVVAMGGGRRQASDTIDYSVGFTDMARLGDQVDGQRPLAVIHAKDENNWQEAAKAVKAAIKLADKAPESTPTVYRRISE
Assay: Inhibition of recombinant Escherichia coli thymidine phosphorylase using thymidine as substrate by UV-spectrophotometric analysis
Measured Property: IC50 (µM)

                                 smiles_code                             tested_system  unit_label  data_value
 0  COc1ccc(-c2cnn3c(=O)[nH]c(=S)[nH]c23)cc1  Thymidine phosphorylase (Escherichia coli K-12, UniProt P07650)          µM        39.7
 1             O=c1[nH]c(=S)[nH]c2c(Cl)cnn12  Thymidine phosphorylase (Escherichia coli K-12, UniProt P07650)          µM        27.6
 2   Cc1ccc(-c2cc3[nH]c(=S)[nH]c(=O)n3n2)cc1  Thymidine phosphorylase (Escherichia coli K-12, UniProt P07650)          µM        19.3
 3  CCOc1ccc(-c2cnn3c(=O)[nH]c(=S)[nH]c23)cc1  Thymidine phosphorylase (Escherichia coli K-12, UniProt P07650)          µM        15.5
 4  O=c1[nH]c(=S)[nH]c2cc(-c3ccc(Cl)cc3)nn12  Thymidine phosphorylase (Escherichia coli K-12, UniProt P07650)          µM        33.5
 5   O=c1[nH]c(=S)[nH]c2c(-c3ccc(I)cc3)cnn12  Thymidine phosphorylase (Escherichia coli K-12, UniProt P07650)          µM        0.21
 6       O=c1[nH]c(=S)[nH]c2cc(C(F)(F)F)nn12  Thymidine phosphorylase (Escherichia coli K-12, UniProt P07650)          µM        32.6
 7             O=c1[nH]c(=S)[nH]c2c(Br)cnn12  Thymidine phosphorylase (Escherichia coli K-12, UniProt P07650)          µM        44.4
 8   O=c1[nH]c(=S)[nH]c2cc(-c3ccc(F)cc3)nn12  Thymidine phosphorylase (Escherichia coli K-12, UniProt P07650)          µM        41.7
 9  CC(C)(C)c1ccc(-c2cc3[nH]c(=S)[nH]c(=O)n3n2)cc1  Thymidine phosphorylase (Escherichia coli K-12, UniProt P07650)          µM         6.6
10   O=c1[nH]c(=S)[nH]c2c(-c3ccc(F)cc3)cnn12  Thymidine phosphorylase (Escherichia coli K-12, UniProt P07650)          µM        10.5
11  O=c1[nH]c(=S)[nH]c2c(-c3ccc(Br)cc3)cnn12  Thymidine phosphorylase (Escherichia coli K-12, UniProt P07650)          µM        0.63
12      O=c1[nH]c(=S)[nH]c2c(-c3ccccc3)cnn12  Thymidine phosphorylase (Escherichia coli K-12, UniProt P07650)          µM        26.3
13  COc1ccc(-c2cc3[nH]c(=S)[nH]c(=O)n3n2)cc1  Thymidine phosphorylase (Escherichia coli K-12, UniProt P07650)          µM        28.4
14                 O=c1[nH]c(=S)[nH]c2ccnn12  Thymidine phosphorylase (Escherichia coli K-12, UniProt P07650)          µM        68.2
15   Cc1ccc(-c2cnn3c(=O)[nH]c(=S)[nH]c23)cc1  Thymidine phosphorylase (Escherichia coli K-12, UniProt P07650)          µM         1.7
16  O=c1[nH]c(=S)[nH]c2cc(-c3ccc(Br)cc3)nn12  Thymidine phosphorylase (Escherichia coli K-12, UniProt P07650)          µM        34.9
17  O=c1[nH]c(=S)[nH]c2c(-c3ccc(Cl)cc3)cnn12  Thymidine phosphorylase (Escherichia coli K-12, UniProt P07650)          µM        0.54
18  CC(C)(C)c1ccc(-c2cnn3c(=O)[nH]c(=S)[nH]c23)cc1  Thymidine phosphorylase (Escherichia coli K-12, UniProt P07650)          µM         5.6
19  O=c1[nH]c(=S)[nH]c2c(-c3ccc([N+](=O)[O-])cc3)cnn12  Thymidine phosphorylase (Escherichia coli K-12, UniProt P07650)          µM        0.58
20  O=c1[nH]c(=S)[nH]c2c(-c3ccc(S(F)(F)(F)(F)F)cc3)cnn12  Thymidine phosphorylase (Escherichia coli K-12, UniProt P07650)          µM        0.04
21              Cc1cc2[nH]c(=S)[nH]c(=O)n2n1  Thymidine phosphorylase (Escherichia coli K-12, UniProt P07650)          µM        79.4
22  O=c1[nH]c(=S)[nH]c2c(-c3ccc(C(F)(F)F)cc3)cnn12  Thymidine phosphorylase (Escherichia coli K-12, UniProt P07650)          µM        0.24
23       CC(C)(C)c1cc2[nH]c(=S)[nH]c(=O)n2n1  Thymidine phosphorylase (Escherichia coli K-12, UniProt P07650)          µM        29.1
24              O=c1[nH]c(=S)[nH]c2c(I)cnn12  Thymidine phosphorylase (Escherichia coli K-12, UniProt P07650)          µM        20.8
25  O=c1[nH]c(=S)[nH]c2cc(-c3ccc(C(F)(F)F)cc3)nn12  Thymidine phosphorylase (Escherichia coli K-12, UniProt P07650)          µM         9.9
26              Cc1cnn2c(=O)[nH]c(=S)[nH]c12  Thymidine phosphorylase (Escherichia coli K-12, UniProt P07650)          µM        87.3
